Target: Broad substrate specificity ATP-binding cassette transporter ABCG2 (Homo sapiens, UniProt Q9UNQ0)
Sequence (Q9UNQ0 whole entry): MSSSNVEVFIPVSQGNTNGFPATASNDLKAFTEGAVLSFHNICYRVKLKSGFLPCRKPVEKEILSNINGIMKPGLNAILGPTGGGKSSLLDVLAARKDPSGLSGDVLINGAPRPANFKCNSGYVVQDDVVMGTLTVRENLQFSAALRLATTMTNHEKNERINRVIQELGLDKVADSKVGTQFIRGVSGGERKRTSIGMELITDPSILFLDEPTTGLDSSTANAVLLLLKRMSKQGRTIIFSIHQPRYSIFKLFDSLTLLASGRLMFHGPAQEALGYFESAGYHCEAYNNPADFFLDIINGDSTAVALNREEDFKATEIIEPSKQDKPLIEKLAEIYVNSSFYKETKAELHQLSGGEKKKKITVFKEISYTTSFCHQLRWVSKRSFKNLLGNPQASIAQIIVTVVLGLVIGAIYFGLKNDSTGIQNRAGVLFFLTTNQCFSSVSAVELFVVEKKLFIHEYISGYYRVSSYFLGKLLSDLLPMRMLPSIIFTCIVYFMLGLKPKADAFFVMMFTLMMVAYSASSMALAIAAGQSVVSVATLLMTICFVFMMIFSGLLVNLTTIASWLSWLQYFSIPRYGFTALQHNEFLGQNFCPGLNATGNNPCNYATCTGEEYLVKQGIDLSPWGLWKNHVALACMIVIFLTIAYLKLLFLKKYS
Assay: Inhibition of BCRP expressed in human HEK293 cells assessed as maximal mitoxantrone accumulation at 10 uM relative control
Assay type: cell-based
Parameters: scale not given: the % may be the effect or the level left
Conditions: hek293, 10 µM
Listed below: Activity values for each entry.
Please state the figure in %; there is no need to write the unit.

Past entries and their recorded results:
O=c1c2c(oc3cc(O)cc(O)c13)C(O)Oc1ccccc1-2 (stereo unspecified) | 29
COC1Oc2ccccc2-c2c1oc1cc(O)c(C)c(O)c1c2=O (stereo unspecified) | 27
COc1cc2c(c(O)c1OC)C(=O)[C@]1(O)c3ccccc3OC[C@H]1O2 | 15
COc1cc2c(c(O)c1C)C(=O)[C@]1(O)c3cccc(O)c3OC[C@H]1O2 | 31

What Activity value was documented for this compound, Cc1c(O)cc2oc3c(c(=O)c2c1O)-c1ccccc1OC3O (stereo unspecified) ?
55

Request the reported Activity associated with Cc1c(O)cc2oc3c(c(=O)c2c1O)-c1ccc(O)cc1OC3O (stereo unspecified)
56
